# Test system: CCRF-CEM leukemia
# Procedure summary: NCI-60 one-dose screen, 48 h
# Setup conditions: 10 µM unless noted
# Protocol: Growth inhibition of the CCRF-CEM human tumor cell line is measured as a screen for anti-cancer activity. Cells are grown in 96 well plates and exposed to the test compound for 48 hours. Compounds are tested at a single concentration, which is 10^-5 M for most compounds. The reported endpoint is percent growth (GI% or GIPRCNT), where numbers from 0 - 100% represent growth inhibition, and numbers from -100% - 0 represent cell death. For example, a value of 40 represents 60% growth inhibition. […]
About 83,000 compounds went through this panel and 20% of them were active in at least one assay; those are over-represented in the sample as a whole. Activity calls are given as the source filed them. How the source made its calls: active means growth percent below 10; inactive means the rest.
Please answer using one outcome listed in 1 for active, 0 for inactive

query: How was CCOCCc1c(O)nc(SC)[nH]c1=O classified in this test?
result: 0

query: How was Nc1c(C(=O)Nc2ccccn2)sc2nc3c(cc12)CCCC3 classified in this test?
result: 0

query: How was CCN1CCC[C@H]1c1cc(O)c2c(c1OC)C[C@H]1C[C@H]3[C@H](N)C(=O)C(C(N)=O)=C(O)[C@@]3(O)C(=O)C1=C2O classified in this test?
result: 1

query: How was COc1cc(C2=NN(C(C)=O)C(c3cccc(Nc4ccnc5cc(C(F)(F)F)ccc45)c3)C2)cc(OC)c1OC (centres undefined) classified in this test?
result: 0

query: How was Nc1ccccc1NS(=O)(=O)c1ccc(Cl)cc1 classified in this test?
result: 0

query: How was O=C1C(Cl)=C(NCCCN(CCCNC2=C(Cl)C(=O)c3ccccc3C2=O)C2=C(Cl)C(=O)c3ccccc3C2=O)C(=O)c2ccccc21 classified in this test?
result: 0

query: How was O=C(Nc1nc(-c2ccccc2)cs1)c1cc(-c2ccc(Br)cc2)nc2ccccc12 classified in this test?
result: 0

query: How was Cc1c(C(=O)Nc2nc3ccccc3[nH]2)cnn1-c1ccccn1 classified in this test?
result: 0

query: How was c1cc(CNC23CC4CC(CC(C4)C2)C3)cc(C[N+](Cc2cccc(CNC34CC5CC(CC(C5)C3)C4)c2)(Cc2cccc(CNC34CC5CC(CC(C5)C3)C4)c2)Cc2cccc(CNC34CC5CC(CC(C5)C3)C4)c2)c1 (centres undefined) classified in this test?
result: 1

query: How was Nc1c(C(=O)Nc2ccccn2)sc2nc3c(cc12)CCCCC3 classified in this test?
result: 1

query: How was O=C(Nc1ccccc1)NS(=O)(=O)c1c[nH]c(=S)[nH]c1=O classified in this test?
result: 0

query: How was Cc1nc2sc(C(=O)Nc3ccccc3)c(N)c2cc1C(C)O (centres undefined) classified in this test?
result: 0

query: How was O=C(CCCC(=O)Nc1ccc(-n2nnc3cc(Cl)c(Cl)cc32)cc1)Nc1ccc(-n2nnc3cc(Cl)c(Cl)cc32)cc1 classified in this test?
result: 0

query: How was COc1ccc(-c2[nH]c3ccccc3c2C=C(C#N)C#N)cc1 classified in this test?
result: 1

query: How was COc1ccc(C2CC(c3ccc(OC)cc3O)=NN2c2ccc(S(N)(=O)=O)cc2)cc1 (centres undefined) classified in this test?
result: 0

query: How was COc1cc(/C=C/C(=O)/C=C/c2cc3ccc(Cl)cc3[nH]c2=O)ccc1O classified in this test?
result: 0

query: How was O=C(O)c1cn(C2CC2)c2cc(N3CCN(C(=O)CSc4nnc(-c5ccc(Cl)cc5)n4-c4ccccc4)CC3)c(F)cc2c1=O classified in this test?
result: 0

query: How was CCOC(=O)c1cnn(-c2nc(-c3ccc(F)cc3)c(C#N)c(N3CCOCC3)n2)c1N classified in this test?
result: 0

query: How was FC(F)(F)c1ccc2c(Nc3cccc(C4CC(c5ccccc5)=NN4c4ccc(Cl)cc4)c3)ccnc2c1 (centres undefined) classified in this test?
result: 1
